Value source: BindingDB's records for doi:10.1021/acs.jmedchem.8b00789

test: Antagonist activity at UT receptor in Sprague-Dawley rat thoracic aortic ring assessed as reduction in URP-induced contraction by measuring pEC50 for human urotensin-2-induced contraction at 1 uM pre-incubated for 30 mins before urotensin-2 stimulation (Rvb = 8.16 +/- 0.08 No_unit)
As shown below, each of these molecules has a reported EC50 value.
Reply with the number and its unit after it.

Some molecules with known EC50 results, for comparison:
### Prompt Given the molecule `CC(C)[C@H](NC(=O)[C@@H]1CSSC[C@H](NC(=O)[C@H](C)N)C(=O)N[C@H](Cc2ccc(I)cc2)C(=O)N[C@@H](Cc2c[nH]c3ccccc23)C(=O)N[C@@H](CCCCN)C(=O)N[C@@H](Cc2ccc(O)cc2)C(=O)N1)C(=O)O` , what is its reported EC50?
### Response 13 nM

### Prompt Given the molecule `CC(C)[C@H](NC(=O)[C@@H]1CSSC[C@H](NC(=O)[C@H](C)N)C(=O)N[C@H](Cc2ccc(C#Cc3ccccc3)cc2)C(=O)N[C@@H](Cc2c[nH]c3ccccc23)C(=O)N[C@@H](CCCCN)C(=O)N[C@@H](Cc2ccc(O)cc2)C(=O)N1)C(=O)O` , what is its reported EC50?
### Response 18 nM

---
### Prompt Given the molecule `CC(C)[C@H](NC(=O)[C@@H]1CSSC[C@H](NC(=O)[C@H](C)N)C(=O)N[C@H](Cc2ccc(-c3ccccc3)cc2)C(=O)N[C@@H](Cc2c[nH]c3ccccc23)C(=O)N[C@@H](CCCCN)C(=O)N[C@@H](Cc2ccc(O)cc2)C(=O)N1)C(=O)O` , what is its reported EC50?
### Response 2.8 nM

### Prompt Given the molecule `CC(C)[C@H](NC(=O)[C@@H]1CSSC[C@H](NC(=O)[C@@H](N)CC(=O)O)C(=O)N[C@H](Cc2ccc(I)cc2)C(=O)N[C@@H](Cc2c[nH]c3ccccc23)C(=O)N[C@@H](CCCCN)C(=O)N[C@@H](Cc2ccc(O)cc2)C(=O)N1)C(=O)O` , what is its reported EC50?
### Response 12 nM

###

test: Antagonist activity at UT receptor in Sprague-Dawley rat thoracic aortic ring assessed as reduction in urotensin-2-induced contraction by measuring pEC50 for human urotensin-2-induced contraction at 1 uM pre-incubated for 30 mins before urotensin-2 stimulation (Rvb = 8.59 +/- 0.12 No_unit)
Value Kind: pEC50
Reminder that pEC50 is minus the log10 of a molar concentration.

Some compounds with known pEC50 results, for comparison:
### Prompt Given the compound `CC(C)[C@H](NC(=O)[C@@H]1CSSC[C@H](NC(=O)[C@@H](N)CC(=O)O)C(=O)N[C@H](Cc2ccc(I)cc2)C(=O)N[C@@H](Cc2c[nH]c3ccccc23)C(=O)N[C@@H](CCCCN)C(=O)N[C@@H](Cc2ccc(O)cc2)C(=O)N1)C(=O)O` , what is its reported pEC50?
### Response 8.96

### Prompt Given the compound `CC(C)[C@H](NC(=O)[C@@H]1CSSC[C@H](NC(=O)[C@H](C)N)C(=O)N[C@H](Cc2ccc(C#Cc3ccccc3)cc2)C(=O)N[C@@H](Cc2c[nH]c3ccccc23)C(=O)N[C@@H](CCCCN)C(=O)N[C@@H](Cc2ccc(O)cc2)C(=O)N1)C(=O)O` , what is its reported pEC50?
### Response 8.27

---
### Prompt Given the compound `CC(C)[C@H](NC(=O)[C@@H]1CSSC[C@H](NC(=O)[C@H](C)N)C(=O)N[C@H](Cc2ccc(-c3ccccc3)cc2)C(=O)N[C@@H](Cc2c[nH]c3ccccc23)C(=O)N[C@@H](CCCCN)C(=O)N[C@@H](Cc2ccc(O)cc2)C(=O)N1)C(=O)O` , what is its reported pEC50?
### Response 8.17

### Prompt Given the compound `CC(C)[C@H](NC(=O)[C@@H]1CSSC[C@H](NC(=O)[C@H](C)N)C(=O)N[C@H](Cc2ccc(I)cc2)C(=O)N[C@@H](Cc2c[nH]c3ccccc23)C(=O)N[C@@H](CCCCN)C(=O)N[C@@H](Cc2ccc(O)cc2)C(=O)N1)C(=O)O` , what is its reported pEC50?
### Response 8.49
